Would you kindly list pIC50 for each of these compounds?
target.under.test: Probable nicotinate-nucleotide adenylyltransferase (Bacillus anthracis)
Sequence (C3L5T6 whole entry): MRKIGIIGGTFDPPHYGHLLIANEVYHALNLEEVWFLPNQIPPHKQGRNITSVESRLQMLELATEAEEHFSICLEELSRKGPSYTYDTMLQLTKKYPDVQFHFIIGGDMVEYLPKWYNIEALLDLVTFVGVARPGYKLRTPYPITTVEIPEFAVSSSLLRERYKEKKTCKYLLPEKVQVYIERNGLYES
pIC50: −log10 of the molar value.

// map CC(/C=N/NC(=O)CCC(=O)Nc1ccc(Br)cc1)c1ccc2ccccc2c1 (configuration not stated) to recorded pIC50 (system: Probable nicotinate-nucleotide adenylyltransferase (Bacillus anthracis))
< 3.70

Now consider "O=C(O)CN(/N=C/c1cccc2ccccc12)C(=O)CCC(=O)Nc1ccccc1Cl" and answer again.
< 3.70
